# Test system: DNA
# EXPERIMENT_NOTES: Induction of DNA damage in Escherichia coli pBR322 DNA assessed as open circular DNA irradiated with 15 J/cm^2 UV light dose relative to control
# Type: nucleic-acid assay
READOUT_NAME: Activity (%)

INSERT INTO assay_data (smiles_representation, target_desc, measured) VALUES
  ('CCOC(=O)c1ccc2n1CCc1cnc(NC3CCCCC3)nc1-2', 'DNA', 16.5),
  ('CC(C)OC(=O)c1ccc2n1CCCc1cnc(NC3CCCCC3)nc1-2', 'DNA', 49.9),
  ('CC(C)OC(=O)c1ccc2n1CCc1cnc(NC3CCCCC3)nc1-2', 'DNA', 63.4),
  ('CCOC(=O)c1ccc2n1CCCc1cnc(NC3CCCCC3)nc1-2', 'DNA', 25.3);
